The reported numbers originate from patent US10023602B2.

- Tested on: methicillin resistant S. aureus Mu50 strain (S. aureus ATCC700699) biofilm
- run description: Biofilm susceptibility to vancomycin, combination treatment regimen (mature biofilm treated with compound plus vancomycin)
- Type: cell-based
- assay conditions: compound 100 μM together with VAN 20 μg/ml on mature biofilm; compared to the untreated (negative) control
# Lookup of reported Combin. (100 μM): percentage Colony Forming Units (CFU's) per biofilm keyed by entry
measurement type: Combin. (100 μM): percentage Colony Forming Units (CFU's) per biofilm (percentage)

molecule smiles: O=C(NC[C@]1(O)CO[C@H](CNC(=O)c2ccccc2Cl)[C@H]1O)c1ccc(-c2ccccc2)cc1
reported: 29.40
//
molecule smiles: O=C(NC[C@H]1OC[C@@](O)(CNC(=O)c2ccccc2)[C@@H]1O)Nc1ccccc1
reported: 18.72
//
molecule smiles: O=C(NC[C@]1(O)CO[C@H](CNC(=O)c2ccncn2)[C@H]1O)c1ccccc1
reported: 15.85
//
molecule smiles: O=C(NC[C@]1(O)CO[C@H](CNC(=O)c2ccc(Cl)nc2Cl)[C@H]1O)c1ccccc1
reported: 16.84
//
molecule smiles: N#Cc1ccc(C(=O)NC[C@H]2OC[C@@](O)(CNC(=O)c3ccccc3)[C@@H]2O)cc1
reported: 16.06
//
molecule smiles: O=C(NC[C@]1(O)CO[C@H](CNC(=O)c2cnccn2)[C@H]1O)c1ccccc1
reported: 18.77
//
molecule smiles: O=C(NC[C@]1(O)CO[C@H](CNC(=O)c2ccccc2Cl)[C@H]1O)c1ccccc1
reported: 7.776
//
molecule smiles: O=C(NC[C@]1(O)CO[C@H](CNS(=O)(=O)c2ccc(-c3ccccc3)cc2)[C@H]1O)c1ccccc1
reported: 17.02
